# System: Saccharomyces cerevisiae BY4741 SeMeCo community
# ASSAY_PROCEDURE: z-score of subpopulation abundance vs DMSO median, subpopulation auxotrophic for HM; higher = larger share of this subpopulation than in DMSO controls
# CONDITION_NOTES: 10 µM; 24 h; SM minimal medium; subpopulation (auxotrophy): HM
QUANTITY: z-score of subpopulation abundance
Output: the number by itself.

Here are 2 molecules together with their reported answers.
INSERT INTO measurements (molecule, observed_value) VALUES
  ('CC1(C)S[C@@H]2[C@H](NC(=O)[C@H](C(=O)O)c3ccsc3)C(=O)N2[C@H]1C(=O)O [Ticarcillin sodium]', 0.42),
  ('CC1(C)S[C@@H]2[C@H](NC(=O)Cc3ccccc3)C(=O)N2[C@H]1C(=O)O [Penicillin G Sodium]', -1.14);

Can you look up z-score of subpopulation abundance on Saccharomyces cerevisiae BY4741 SeMeCo community for Oc1ccc([C@H]2COc3cc(O)ccc3C2)cc1 ?
0.47

* * *

# Tested on: Saccharomyces cerevisiae BY4741 SeMeCo community
# ASSAY_PROCEDURE: z-score of subpopulation abundance vs DMSO median, subpopulation auxotrophic for HU; higher = larger share of this subpopulation than in DMSO controls
# CONDITION_NOTES: 10 µM; 24 h; SM minimal medium; subpopulation (auxotrophy): HU
Where a name gives a salt, the structure may show the parent alone.
QUANTITY: z-score of subpopulation abundance
Output: the number by itself.

Here are 3 compounds together with their reported answers.
INSERT INTO results (compound, quantity, observed_value) VALUES
  ('CC1(C)S[C@@H]2[C@H](NC(=O)[C@H](N)c3ccc(O)cc3)C(=O)N2[C@H]1C(=O)O [Amoxicillin trihydrate]', 'z-score of subpopulation abundance', 0.31),
  ('COCCOC(=O)C1=C(C)NC(C)=C(C(=O)OC/C=C/c2ccccc2)C1c1cccc([N+](=O)[O-])c1 (centres undefined)', 'z-score of subpopulation abundance', 0.24),
  ('COC(=O)C1=C(C)NC(C)=C(C(=O)OCCN(C)Cc2ccccc2)C1c1cccc([N+](=O)[O-])c1 (centres undefined) [Nicardipine HCl]', 'z-score of subpopulation abundance', 0);

Quick one: z-score of subpopulation abundance of CCCNC(C)C(=O)Nc1ccccc1C (centres undefined) [Prilocaine hydrochloride] ?
0.08

* * *

# System: Saccharomyces cerevisiae BY4741 SeMeCo community
# ASSAY_PROCEDURE: z-score of subpopulation abundance vs DMSO median, subpopulation auxotrophic for L; higher = larger share of this subpopulation than in DMSO controls
# CONDITION_NOTES: 10 µM; 24 h; SM minimal medium; subpopulation (auxotrophy): L
Where a name gives a salt, the structure may show the parent alone.
QUANTITY: z-score of subpopulation abundance
Output: the number by itself.

Here are 5 compounds together with their reported answers.
INSERT INTO results (compound, observed_value) VALUES
  ('CCCC1CC(C(=O)NC(C(C)Cl)C2OC(SC)C(O)C(O)C2O)N(C)C1 (stereo not given) [Clindamycin alcoholate]', 1.51),
  ('CCOc1ccc2nc3cc(N)ccc3c(N)c2c1 [Ethacridine lactate monohydrate]', 1.84),
  ('COC(=O)C1=C(C)NC(C)=C(C(=O)OC)C1c1ccccc1[N+](=O)[O-]', 0.52),
  ('CSCC1CN(/N=C/c2ccc([N+](=O)[O-])o2)C(=O)O1 (stereo not given)', 3.68),
  ('C=CC(C)(O)CCC=C(C)C (stereo not given)', -0.24);

Quick one: z-score of subpopulation abundance of Cc1nnc(SCC2=C(C(=O)O)N3C(=O)[C@@H](NC(=O)Cn4cc(Cl)c(=O)c(Cl)c4)[C@H]3SC2)s1 ?
-0.83

Quick one: z-score of subpopulation abundance of Cc1cccc(C)c1NC(=O)C1CCCCN1C (stereo not given) [Mepivacaine HCl] ?
-0.36

Quick one: z-score of subpopulation abundance of CC#C[C@]1(O)CC[C@H]2[C@@H]3CCC4=CC(=O)CCC4=C3[C@@H](c3ccc(N(C)C)cc3)C[C@@]21C ?
1.02

Quick one: z-score of subpopulation abundance of COc1cc2c(cc1OC)-c1cc3ccc(OC)c(OC)c3c[n+]1CC2 ?
2.2

Quick one: z-score of subpopulation abundance of CO/N=C(\C(=O)N[C@@H]1C(=O)N2C(C(=O)O)=C(CSC(=O)c3ccco3)CS[C@H]12)c1csc(N)n1 [Ceftiofur HCl] ?
-0.69
